molecular target: PI3Kγ (Homo sapiens, UniProt P48736); construct: host or cells: THP-1; experiment: PI3Kγ cellular assay in THP-1 cells (AKT pS473 AlphaLISA); assay type: cell-based; conditions: Table 1, rhMCP-1 stimulated AKT pS473, read-out: cellular potency (PI3Kγ IC50)
Sequence (P48736 whole entry): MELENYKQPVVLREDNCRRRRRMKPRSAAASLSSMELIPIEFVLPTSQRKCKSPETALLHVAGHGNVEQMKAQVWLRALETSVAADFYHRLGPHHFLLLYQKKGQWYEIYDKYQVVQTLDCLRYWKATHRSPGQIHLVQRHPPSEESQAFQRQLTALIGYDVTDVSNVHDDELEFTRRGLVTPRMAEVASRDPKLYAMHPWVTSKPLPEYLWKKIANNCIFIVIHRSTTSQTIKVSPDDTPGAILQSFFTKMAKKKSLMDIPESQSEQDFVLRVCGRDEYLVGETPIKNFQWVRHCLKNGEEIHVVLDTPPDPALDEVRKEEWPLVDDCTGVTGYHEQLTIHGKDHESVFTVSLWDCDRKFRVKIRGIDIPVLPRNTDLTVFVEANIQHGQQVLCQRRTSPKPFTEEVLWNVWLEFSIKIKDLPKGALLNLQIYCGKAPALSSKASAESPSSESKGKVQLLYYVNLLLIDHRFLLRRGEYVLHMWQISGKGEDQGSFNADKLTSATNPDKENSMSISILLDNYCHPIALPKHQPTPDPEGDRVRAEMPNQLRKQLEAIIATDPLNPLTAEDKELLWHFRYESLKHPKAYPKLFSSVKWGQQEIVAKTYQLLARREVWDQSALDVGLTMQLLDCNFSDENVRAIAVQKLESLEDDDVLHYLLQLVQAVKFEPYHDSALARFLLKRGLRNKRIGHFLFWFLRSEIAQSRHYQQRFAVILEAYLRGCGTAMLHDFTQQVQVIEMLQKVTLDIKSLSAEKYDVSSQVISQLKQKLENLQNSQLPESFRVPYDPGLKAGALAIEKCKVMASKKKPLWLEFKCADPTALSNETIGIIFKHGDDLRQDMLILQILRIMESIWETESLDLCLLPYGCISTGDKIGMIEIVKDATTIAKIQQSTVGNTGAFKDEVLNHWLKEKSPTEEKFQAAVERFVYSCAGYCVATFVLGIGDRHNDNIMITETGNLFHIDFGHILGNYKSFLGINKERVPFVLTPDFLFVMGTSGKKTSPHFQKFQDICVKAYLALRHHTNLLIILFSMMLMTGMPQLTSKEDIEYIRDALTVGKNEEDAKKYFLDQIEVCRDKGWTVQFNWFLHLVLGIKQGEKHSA
pIC50: −log10 of the molar value.
assay metric: pIC50

Guide cases for pIC50, answers given:
{"compound": "Cc1nn(C)cc1NC(=O)c1c(N)nn2ccc(-c3cc4c(c(NS(C)(=O)=O)c3)C(=O)N([C@@H](C)C3CC3)C4)nc12 [Example 107]", "pIC50": "> 7.00"}
{"compound": "C[C@@H](C1CC1)N1Cc2cc(-c3ccn4nc(N)c(C(=O)N[C@H]5CC[C@@](C)(O)CC5)c4n3)cc(NS(C)(=O)=O)c2C1=O [Example 89]", "pIC50": "> 7.00"}

GET /values?readout=pIC50&item= C[C@@H](C1CC1)N1Cc2cc(-c3ccn4nc(N)c(C(=O)N[C@H]5CC[C@H](C6(O)CC6)CC5)c4n3)cc(OC(F)(F)F)c2C1=O [Example 30]
> 7.00

###

The entries below are paired with their reported IC50.
Biological target: PI3Kγ (Homo sapiens, UniProt P48736)
Construct: host or cells: THP-1
Test: PI3Kγ cellular assay in THP-1 cells (AKT pS473 AlphaLISA)
Format: cell-based
Settings: Table 2, rhMCP-1 stimulated AKT pS473, read-out: cellular potency (PI3Kγ IC50)
Method: Twenty microliters of serum starved THP-1 cells were added to the compound plate in serum free DMEM at a density of 9×10^6 cells per ml. […] PI3Kγ activity was evaluated as a correlate of endogenous AKT phosphorylation levels. Percentage maximum activity in each test well was calculated based on DMSO (100% activity) and positive control treated cell wells (0% activity). The potencies (IC50's) of test compounds were determined using a standard 4-parameter fit non-linear regression fit.

Guide cases for IC50, answers given:
{"query smiles": "Cc1cc(-c2ccn3nc(N)c(C(=O)N[C@@H]4CCNC4)c3n2)cc2c1C(=O)N([C@@H](C)C1CC1)C2", "system tested": "PI3Kγ (Homo sapiens, UniProt P48736)", "IC50": "100 to 1000 nM"}
{"query smiles": "Cc1cc(-c2ccn3nc(N)c(C(=O)N[C@H]4CCNC4=O)c3n2)cc2c1C(=O)N([C@@H](C)C1CC1)C2", "system tested": "PI3Kγ (Homo sapiens, UniProt P48736)", "IC50": "100 to 1000 nM"}
{"query smiles": "Cc1cc(-c2ccn3nc(N)c(C(=O)N[C@@H](C)c4nccs4)c3n2)cc2c1C(=O)N([C@@H](C)C1CC1)C2", "system tested": "PI3Kγ (Homo sapiens, UniProt P48736)", "IC50": "100 to 1000 nM"}

For the next question, use this compound.
What is its IC50 for PI3Kγ (Homo sapiens, UniProt P48736)? Entry: Cc1cc(-c2ccn3nc(N)c(C(=O)NC4CNC4)c3n2)cc2c1C(=O)N([C@@H](C)C1CC1)C2
> 1000 nM

###

target: PI3Kγ (Homo sapiens, UniProt P48736); construct: host or cells: THP-1; assay: PI3Kγ cellular assay in THP-1 cells (AKT pS473 AlphaLISA); format: cell-based; conditions: Table 6, rhMCP-1 stimulated AKT pS473, read-out: cellular potency (PI3Kγ IC50)
pIC50: −log10 of the molar value.
assay metric: pIC50

Guide cases for pIC50, answers given:
{"compound": "C[C@@H](C1CC1)N1Cc2cc(-c3ccn4nc(N)c(C(=O)NC5CC5)c4n3)cc(O[C@H](C)C(F)(F)F)c2C1=O", "pIC50": "6.00 to 7.00"}
{"compound": "C[C@H](N1Cc2cc(-c3ccn4nc(N)c(C(=O)NC5CC5)c4n3)cc(OC(F)(F)F)c2C1=O)C(F)(F)F", "pIC50": "6.00 to 7.00"}
{"compound": "C[C@@H](C1CC1)N1Cc2cc(-c3ccn4nc(N)c(C(=O)Nc5cccc(C(C)(C)O)c5)c4n3)cc(OC(F)(F)F)c2C1=O", "pIC50": "6.00 to 7.00"}
{"compound": "C[C@@H](C1CC1)N1Cc2cc(-c3ccn4nc(N)c(C(=O)N[C@H]5CNC[C@H]5O)c4n3)cc(OC(F)(F)F)c2C1=O", "pIC50": "< 6.00"}
{"compound": "C[C@@H](C1CC1)N1Cc2cc(-c3ccn4nc(N)c(C(=O)N[C@H]5C[C@H](O)C5)c4n3)cc(S(C)(=O)=O)c2C1=O", "pIC50": "6.00 to 7.00"}

What is its pIC50 for PI3Kγ (Homo sapiens, UniProt P48736)? Entry: C[C@@H](C1CC1)N1Cc2cc(-c3ccn4nc(N)c(C(=O)N[C@H]5CCC[C@@H](N)C5)c4n3)cc(OC(F)(F)F)c2C1=O
6.00 to 7.00
